Source listed as a collection of fitness landscapes (doi:10.1016/j.celrep.2020.107928).

B1: Caulobacter ParB omega fusion; a variant is named by its letters at X, in order, B8GW30 (parent)
chain: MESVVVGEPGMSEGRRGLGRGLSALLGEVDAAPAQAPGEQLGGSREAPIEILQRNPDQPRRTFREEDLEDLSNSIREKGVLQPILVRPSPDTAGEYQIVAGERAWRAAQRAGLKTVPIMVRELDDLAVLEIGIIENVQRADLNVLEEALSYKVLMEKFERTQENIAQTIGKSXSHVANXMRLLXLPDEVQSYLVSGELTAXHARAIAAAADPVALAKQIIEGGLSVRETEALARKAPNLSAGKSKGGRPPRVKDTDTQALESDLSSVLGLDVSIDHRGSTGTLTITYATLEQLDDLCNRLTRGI

- Variants of: B1
- test-method-notes: one-hybrid fitness for binding NBS DNA (the Noc-binding site; scaled: cognate 1, non-cognate 0); higher = stronger binding
- condition-summary: with NBS DNA site
Over roughly 81,000 sequences, “one-hybrid fitness for binding NBS DNA” has its median near -0.1; the highest 2% begin near 0.36. The sample as a whole holds a higher share of the highest values than the screen did.
endpoint: one-hybrid fitness for binding NBS DNA

| sequence-variant | endpoint | observed-measurement |
| --- | --- | --- |
| QRKT | one-hybrid fitness for binding NBS DNA | 0.848 |
| QMAT | one-hybrid fitness for binding NBS DNA | 0.505 |
| QKYP | one-hybrid fitness for binding NBS DNA | ≤ 0.2 |
| RCPT | one-hybrid fitness for binding NBS DNA | ≤ 0.2 |
| NKRR | one-hybrid fitness for binding NBS DNA | 0.235 |
| DRKT | one-hybrid fitness for binding NBS DNA | ≤ 0.2 |
| QMWK | one-hybrid fitness for binding NBS DNA | ≤ 0.2 |
| SACR | one-hybrid fitness for binding NBS DNA | ≤ 0.2 |

Then this variant:
Query :: Name the recorded one-hybrid fitness for binding NBS DNA for `QCQK` .
Result :: ≤ 0.2
